These data points were gathered from patent US20230024438A1.

- system-under-test: Histidine tagged HIF-2α protein containing PAS-B domain (240-350) (Homo sapiens, UniProt Q99814)
- Construct: Histidine tagged HIF-2α protein containing PAS-B domain (240-350) was prepared and purified in house; made in house
- Sequence (Q99814 240-350): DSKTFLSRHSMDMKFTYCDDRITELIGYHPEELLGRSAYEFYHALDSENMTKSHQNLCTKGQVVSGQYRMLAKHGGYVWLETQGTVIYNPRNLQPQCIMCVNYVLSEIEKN
- run-description: HIF-2α Scintillation Proximity Assay (SPA)
- Format: binding
- assay-setup: 50 nM HIF-2α protein, 25 nM radiolabeled tracer; read-out: HIF-2α Scintillation Proximity Assay
measurement-type: IC50

Past entries and their recorded results:
Field IC50 (entry N#Cc1cccc(Oc2ccc(S(=O)(=O)C(F)(F)F)c3[nH]nc(Cl)c23)c1 ) reads < 1 µM

Field IC50 (entry N#Cc1ccc(Oc2ccc(S(=O)(=O)C(F)(F)F)c3[nH]ncc23)cc1F ) reads > 10 µM

Field IC50 (entry O=S(=O)(c1ccc(Oc2ccccc2)c2cn[nH]c12)C(F)(F)F ) reads > 10 µM

Field IC50 (entry O=S(=O)(c1ccc(Oc2cc(F)c(F)c(F)c2)c2cn[nH]c12)C(F)(F)F ) reads 1 to 10 µM

Field IC50 (entry Cc1cc(C#N)cc(Oc2ccc(S(=O)(=O)C(F)(F)F)c3[nH]ncc23)c1 ) reads 1 to 10 µM

---
Field IC50 (entry O=S(=O)(c1ccc(Nc2cc(F)cc(F)c2)c2cn[nH]c12)C(F)(F)F ) reads 1 to 10 µM

Field IC50 (entry N#Cc1cc(F)cc(Oc2c(F)cc(S(=O)(=O)C(F)(F)F)c3[nH]ncc23)c1 ) reads 1 to 10 µM

Field IC50 (entry O=S(=O)(c1ccc(Oc2cc(F)cc(F)c2)c2cn[nH]c12)C(F)(F)F ) reads < 1 µM

----------
- system-under-test: HIF-2α (Homo sapiens, UniProt Q99814)
- Construct: endogenous in cells; host or cells: 786-O cells (ATCC CRL-1932) stably carrying the Cignal Lenti HIF Luc Reporter
- Sequence (Q99814 whole entry): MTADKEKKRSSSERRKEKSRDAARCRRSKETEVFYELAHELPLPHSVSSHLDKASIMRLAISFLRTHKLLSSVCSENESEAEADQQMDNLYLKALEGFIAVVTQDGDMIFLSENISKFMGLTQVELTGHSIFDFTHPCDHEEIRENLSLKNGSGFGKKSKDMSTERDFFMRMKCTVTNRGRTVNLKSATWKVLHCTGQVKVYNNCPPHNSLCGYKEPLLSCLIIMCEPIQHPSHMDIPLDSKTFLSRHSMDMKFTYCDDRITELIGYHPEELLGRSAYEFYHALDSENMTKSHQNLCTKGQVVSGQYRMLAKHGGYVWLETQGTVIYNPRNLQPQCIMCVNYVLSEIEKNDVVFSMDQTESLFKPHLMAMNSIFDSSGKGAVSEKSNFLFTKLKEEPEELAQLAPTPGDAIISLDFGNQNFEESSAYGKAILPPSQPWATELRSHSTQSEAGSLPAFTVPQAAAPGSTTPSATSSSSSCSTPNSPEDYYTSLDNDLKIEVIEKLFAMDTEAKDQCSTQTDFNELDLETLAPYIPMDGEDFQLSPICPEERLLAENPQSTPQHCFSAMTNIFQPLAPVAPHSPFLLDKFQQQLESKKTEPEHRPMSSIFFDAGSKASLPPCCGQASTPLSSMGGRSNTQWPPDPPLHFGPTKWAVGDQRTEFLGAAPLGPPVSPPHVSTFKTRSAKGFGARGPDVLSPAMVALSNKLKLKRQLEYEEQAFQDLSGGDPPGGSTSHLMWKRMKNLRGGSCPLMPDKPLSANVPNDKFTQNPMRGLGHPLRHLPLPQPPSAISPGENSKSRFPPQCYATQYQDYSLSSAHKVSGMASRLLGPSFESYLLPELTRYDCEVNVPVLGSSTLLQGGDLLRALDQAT
- run-description: HIF-2α Luciferase Reporter Assay
- Assay type: cell-based
measurement-type: IC50

Field IC50 (entry N#Cc1cc(F)cc(Oc2ccc(S(=O)(=O)C(F)(F)F)c3[nH]ncc23)c1 [Example 15] ) reads < 1000 nM

----------
- system-under-test: HIF-2α (Homo sapiens)
- Construct: endogenous in cells; host or cells: 786-O cells (ATCC CRL-1932) stably carrying the Cignal Lenti HIF Luc Reporter
- run-description: HIF-2α Luciferase Reporter Assay
- Format: cell-based
- assay-setup: HIF-Luc-786-0 cells, 20 hours incubation, luciferase activity; read-out: HIF-2α Luciferase Assay
pIC50: −log10 of the molar value.
measurement-type: pIC50

Past entries and their recorded results:
Field pIC50 (entry O=S(=O)(c1ccc(Oc2cc(F)c(F)c(F)c2)c2cn[nH]c12)C(F)(F)F ) reads < 5.00

Field pIC50 (entry O=S(=O)(c1ccc(Oc2cccc(F)c2)c2cn[nH]c12)C(F)(F)F ) reads 5.00 to 6.00

Field pIC50 (entry O=S(=O)(c1ccc(Cc2cccc(Cl)c2)c2cn[nH]c12)C(F)(F)F ) reads 5.00 to 6.00

Field pIC50 (entry CS(=O)(=O)c1ccc(Oc2cc(F)cc(Cl)c2)c2c(Cl)n[nH]c12 ) reads 5.00 to 6.00

---
Field pIC50 (entry N#Cc1cc(F)cc(Oc2ccc(S(=O)(=O)C(F)(F)F)c3[nH]nc(C#N)c23)c1 ) reads 5.00 to 6.00

Field pIC50 (entry N#Cc1ccc(Oc2ccc(S(=O)(=O)C(F)(F)F)c3[nH]ncc23)cc1 ) reads 5.00 to 6.00

Field pIC50 (entry N#Cc1cc(Cl)cc(Oc2ccc(S(=O)(=O)C(F)(F)F)c3[nH]ncc23)c1 ) reads 5.00 to 6.00

Field pIC50 (entry O=S(=O)(c1ccc(Oc2ccc(F)c(Cl)c2)c2cn[nH]c12)C(F)(F)F ) reads 5.00 to 6.00

----------
- system-under-test: HIF-2α (Homo sapiens, UniProt Q99814)
- Construct: endogenous in cells; host or cells: 786-O cells (ATCC CRL-1932) stably carrying the Cignal Lenti HIF Luc Reporter
- run-description: HIF-2α Luciferase Reporter Assay
- Assay type: cell-based
- assay-setup: HIF-Luc-786-0 cells, 20 hours incubation, luciferase activity; read-out: HIF-2α Luciferase Assay
measurement-type: IC50

Past entries and their recorded results:
Field IC50 (entry O=S(=O)(c1ccc(Oc2cc(Cl)cc(OC(F)(F)F)c2)c2cn[nH]c12)C(F)(F)F [Example 29] ) reads > 10 µM

Field IC50 (entry CS(=O)(=O)c1ccc(Oc2cc(F)cc(C#N)c2)c2c(CO)n[nH]c12 [Example 11] ) reads 1 to 10 µM

---
Field IC50 (entry O=S(=O)(c1ccc(Oc2ccc(Cl)c(F)c2)c2cn[nH]c12)C(F)(F)F [Example 33] ) reads > 10 µM

Field IC50 (entry N#Cc1cc(F)cc(Oc2ccc(S(=O)(=O)C(F)F)c3[nH]ncc23)c1 [Example 12] ) reads 1 to 10 µM

Field IC50 (entry N#Cc1cccc(Oc2ccc(S(=O)(=O)C(F)(F)F)c3[nH]nc(Cl)c23)c1 [Example 62] ) reads > 10 µM

----------
- system-under-test: HIF-2α (Homo sapiens)
- Construct: endogenous in cells; host or cells: 786-O cells (ATCC CRL-1932) stably carrying the Cignal Lenti HIF Luc Reporter
- run-description: HIF-2α Luciferase Reporter Assay
- Assay type: cell-based
- assay-setup: HIF-Luc-786-0 cells, 20 hours incubation, luciferase activity; read-out: HIF-2α Luciferase Assay
pIC50: −log10 of the molar value.
measurement-type: pIC50

Past entries and their recorded results:
Field pIC50 (entry CS(=O)(=O)c1ccc(Oc2cc(F)cc(C#N)c2)c2c(C#N)n[nH]c12 [Example 10] ) reads 5.00 to 6.00

Field pIC50 (entry O=S(=O)(c1ccc(NCc2ccccc2F)c2cn[nH]c12)C(F)(F)F [Example 50] ) reads < 5.00

Field pIC50 (entry O=S(=O)(c1ccc(Oc2cccc(Cl)c2)c2c(Cl)n[nH]c12)C(F)(F)F [Example 63] ) reads < 5.00

---
Field pIC50 (entry O=S(=O)(c1ccc(NCc2ccc(F)cc2C(F)(F)F)c2cn[nH]c12)C(F)(F)F [Example 55] ) reads < 5.00

Field pIC50 (entry Cc1n[nH]c2c(S(=O)(=O)C(F)(F)F)ccc(Oc3cc(F)cc(C#N)c3)c12 [Example 58] ) reads 5.00 to 6.00

Field pIC50 (entry COc1ccc(Oc2ccc(S(=O)(=O)C(F)(F)F)c3[nH]ncc23)cc1 [Example 20] ) reads < 5.00

----------
- system-under-test: HIF-2α (Homo sapiens, UniProt Q99814)
- Construct: endogenous in cells; host or cells: 786-O cells (ATCC CRL-1932) stably carrying the Cignal Lenti HIF Luc Reporter
- run-description: HIF-2α Luciferase Reporter Assay
- Format: cell-based
- assay-setup: HIF-Luc-786-0 cells, 20 hours incubation, luciferase activity; read-out: HIF-2α Luciferase Assay
pIC50: −log10 of the molar value.
measurement-type: pIC50

// assay HIF-2α (Homo sapiens, UniProt Q99814), entry N#Cc1cc(F)cc(Nc2cncc3[nH]ncc23)c1 , pIC50 value = 5.00 to 6.00

// assay HIF-2α (Homo sapiens, UniProt Q99814), entry O=S(=O)(c1ccc(Oc2ccccc2)c2cn[nH]c12)C(F)(F)F , pIC50 value = 5.00 to 6.00

// assay HIF-2α (Homo sapiens, UniProt Q99814), entry Cc1cncc(Oc2ccc(S(=O)(=O)C(F)(F)F)c3[nH]ncc23)n1 , pIC50 value = < 5.00

---
// assay HIF-2α (Homo sapiens, UniProt Q99814), entry N#Cc1cc(F)cc(Oc2cnc(C(F)(F)F)c3[nH]ncc23)c1 , pIC50 value = 5.00 to 6.00
